Hello, the source for this data is the supplement of paper PMC5998384, in case you need it.

- System: HeLa Kyoto
- method: melting temperature (median over replicates), in situ; higher = more thermally stable
- test parameters: cell cycle stage: G1/S
measurement type: melting temperature (°C)
Give the value in °C but do not write °C after it.

sequence MSAKPEVSLVREASRQIVAGGSAGLVEICLMHPLDVVKTRFQIQRCATDPNSYKSLVDSFRMIFQMEGLFGFYKGILPPILAETPKRAVKFFTFEQYKKLLGYVSLSPALTFAIAGLGSGLTEAIVVNPFEVVKVGLQANRNTFAEQPSTVGYARQIIKKEGWGLQGLNKGLTATLGRHGVFNMVYFGFYYNVKNMIPVNKDPILEFWRKFGIGLLSGTIASVINIPFDVAKSRIQGPQPVPGEIKYRTCFKTMATVYQEEGILALYKGLLPKIMRLGPGGAVMLLVYEYTYSWLQENW [SLC25A21] , melting temperature observed: 56.9

sequence MKMKLFQTICRQLRSSKFSVESAALVAFSTSSYSCGRKKKVNPYEEVDQEKYSNLVQSVLSSRGVAQTPGSVEEDALLCGPVSKHKLPNQGEDRRVPQNWFPIFNPERSDKPNASDPSVPLKIPLQRNVIPSVTRVLQQTMTKQQVFLLERWKQRMILELGEDGFKEYTSNVFLQGKRFHEALESILSPQETLKERDENLLKSGYIESVQHILKDVSGVRALESAVQHETLNYIGLLDCVAEYQGKLCVIDWKTSEKPKPFIQSTFDNPLQVVAYMGAMNHDTNYSFQVQCGLIVVAYKDGSPAHPHFMDAELCSQYWTKWLLRLEEYTEKKKNQNIQKPEYSE [MGME1] , melting temperature observed: 52.9

----------
I'd be grateful if you could share measured thermal stability score for these entries.
- Tested on: HeLa Kyoto
- method: thermal stability score vs G1/S (z-score of summed log2 fold changes over temperatures); higher = more thermally stable than in G1/S
- test parameters: cell cycle stage: mitosis

sequence MAGNFDSEERSSWYWGRLSRQEAVALLQGQRHGVFLVRDSSTSPGDYVLSVSENSRVSHYIINSSGPRPPVPPSPAQPPPGVSPSRLRIGDQEFDSLPALLEFYKIHYLDTTTLIEPVSRSRQGSGVILRQEEAEYVRALFDFNGNDEEDLPFKKGDILRIRDKPEEQWWNAEDSEGKRGMIPVPYVEKYRPASASVSALIGGNQEGSHPQPLGGPEPGPYAQPSVNTPLPNLQNGPIYARVIQKRVPNAYDKTALALEVGELVKVTKINVSGQWEGECNGKRGHFPFTHVRLLDQQNPDEDFS [CRK] , thermal stability score observed: -1.21

sequence MDCGSVGGQRTQRLPGRQRLLFLPVGLSGRPGGSETSARRCLSALSDGLGALRPRAPAARGGVSRASPLLLLLLVPSPRLAAAAPRRQLGDWERSRLGYAAPPAGRSSAWRCSPGVAAAAGALPQYHGPAPALVSCRRELSLSAGSLQLERKRRDFTSSGSRKLYFDTHALVCLLEDNGFATQQAEIIVSALVKILEANMDIVYKDMVTKMQQEITFQQVMSQIANVKKDMIILEKSEFSALRAENEKIKLELHQLKQQVMDEVIKVRTDTKLDFNLEKSRVKELYSLNEKKLLELRTEIVALHAQQDRALTQTDRKIETEVAGLKTMLESHKLDNIKYLAGSIFTCLTVALGFYRLWI [MCUR1] , thermal stability score observed: -0.133

sequence MSMEDPFFVVKGEVQKAVNTAQGLFQRWTELLQDPSTATREEIDWTTNELRNNLRSIEWDLEDLDETISIVEANPRKFNLDATELSIRKAFITSTRQVVRDMKDQMSTSSVQALAERKNRQALLGDSGSQNWSTGTTDKYGRLDRELQRANSHFIEEQQAQQQLIVEQQDEQLELVSGSIGVLKNMSQRIGGELEEQAVMLEDFSHELESTQSRLDNVMKKLAKVSHMTSDRRQWCAIAILFAVLLVVLILFLVL [STX6] , thermal stability score observed: -0.616

----------
I'd be grateful if you could share measured solubility in G1/S (log2) for these entries.
- Tested on: HeLa Kyoto
- method: solubility in G1/S (NP-40 vs SDS abundance) (log2 ratio); higher = more soluble
- test parameters: cell cycle stage: G1/S
Please give only the number in your answer, with no unit.

sequence MFKNTFQSGFLSILYSIGSKPLQIWDKKVRNGHIKRITDNDIQSLVLEIEGTNVSTTYITCPADPKKTLGIKLPFLVMIIKNLKKYFTFEVQVLDDKNVRRRFRASNYQSTTRVKPFICTMPMRLDDGWNQIQFNLLDFTRRAYGTNYIETLRVQIHANCRIRRVYFSDRLYSEDELPAEFKLYLPVQNKAKQ [CFAP20] , solubility in G1/S (log2) observed: -0.154

sequence MGNVLAASSPPAGPPPPPAPALVGLPPPPPSPPGFTLPPLGGSLGAGTSTSRSSERTPGAATASASGAAEDGACGCLPNPGTFEECHRKCKELFPIQMEGVKLTVNKGLSNHFQVNHTVALSTIGESNYHFGVTYVGTKQLSPTEAFPVLVGDMDNSGSLNAQVIHQLGPGLRSKMAIQTQQSKFVNWQVDGEYRGSDFTAAVTLGNPDVLVGSGILVAHYLQSITPCLALGGELVYHRRPGEEGTVMSLAGKYTLNNWLATVTLGQAGMHATYYHKASDQLQVGVEFEASTRMQDTSVSFGYQLDLPKANLLFKGSVDSNWIVGATLEKKLPPLPLTLALGAFLNHRKNKFQCGFGLTIG [TOMM40] , solubility in G1/S (log2) observed: 0.262

sequence METVISSDSSPAVENEHPQETPESNNSVYTSFMKSHRCYDLIPTSSKLVVFDTSLQVKKAFFALVTNGVRAAPLWDSKKQSFVGMLTITDFINILHRYYKSALVQIYELEEHKIETWREVYLQDSFKPLVCISPNASLFDAVSSLIRNKIHRLPVIDPESGNTLYILTHKRILKFLKLFITEFPKPEFMSKSLEELQIGTYANIAMVRTTTPVYVALGIFVQHRVSALPVVDEKGRVVDIYSKFDVINLAAEKTYNNLDVSVTKALQHRSHYFEGVLKCYLHETLETIINRLVEAEVHRLVVVDENDVVKGIVSLSDILQALVLTGGEKKP [PRKAG1] , solubility in G1/S (log2) observed: 0.164

----------
- Tested on: HeLa Kyoto
- method: solubility change mitosis vs G1/S (difference of NP-40 vs SDS log2 ratios) (log2 ratio difference); higher = more soluble in mitosis
I'd be grateful if you could share measured solubility change mitosis (log2) for these entries.
Please give only the number in your answer, with no unit.

sequence MAILFAVVARGTTILAKHAWCGGNFLEVTEQILAKIPSENNKLTYSHGNYLFHYICQDRIVYLCITDDDFERSRAFNFLNEIKKRFQTTYGSRAQTALPYAMNSEFSSVLAAQLKHHSENKGLDKVMETQAQVDELKGIMVRNIDLVAQRGERLELLIDKTENLVDSSVTFKTTSRNLARAMCMKNLKLTIIIIIVSIVFIYIIVSPLCGGFTWPSCVKK [VAMP7] , solubility change mitosis (log2) observed: -0.283

sequence MVKLFIGNLPREATEQEIRSLFEQYGKVLECDIIKNYGFVHIEDKTAAEDAIRNLHHYKLHGVNINVEASKNKSKASTKLHVGNISPTCTNQELRAKFEEYGPVIECDIVKDYAFVHMERAEDAVEAIRGLDNTEFQGKRMHVQLSTSRLRTAPGMGDQSGCYRCGKEGHWSKECPVDRTGRVADFTEQYNEQYGAVRTPYTMGYGESMYYNDAYGALDYYKRYRVRSYEAVAAAAAASAYNYAEQTMSHLPQVQSTTVTSHLNSTSVDPYDRHLLPNSGAAATSAAMAAAAATTSSYYGRDRSPLRRAAAMLPTVGEGYGYGPESELSQASAATRNSLYDMARYEREQYVDRARYSAF [RBM4B] , solubility change mitosis (log2) observed: -0.335

----------
- Tested on: HeLa Kyoto
- method: melting temperature (median over replicates), in situ; higher = more thermally stable
- test parameters: cell cycle stage: mitosis
measurement type: melting temperature (°C)
Give the value in °C but do not write °C after it.

sequence MEGCVSNLMVCNLAYSGKLEELKESILADKSLATRTDQDSRTALHWACSAGHTEIVEFLLQLGVPVNDKDDAGWSPLHIAASAGRDEIVKALLGKGAQVNAVNQNGCTPLHYAASKNRHEIAVMLLEGGANPDAKDHYEATAMHRAAAKGNLKMIHILLYYKASTNIQDTEGNTPLHLACDEERVEEAKLLVSQGASIYIENKEEKTPLQVAKGGLGLILKRMVEG [PSMD10] , melting temperature observed: 49.8

sequence MPRVVPDQRSKFENEEFFRKLSRECEIKYTGFRDRPHEERQARFQNACRDGRSEIAFVATGTNLSLQFFPASWQGEQRQTPSREYVDLEREAGKVYLKAPMILNGVCVIWKGWIDLQRLDGMGCLEFDEERAQQEDALAQQAFEEARRRTREFEDRDRSHREEMEVRVSQLLAVTGKKTTRP [CBFB] , melting temperature observed: 51.2

sequence MGQIEWAMWANEQALASGLILITGGIVATAGRFTQWYFGAYSIVAGVFVCLLEYPRGKRKKGSTMERWGQKYMTAVVKLFGPFTRNYYVRAVLHLLLSVPAGFLLATILGTACLAIASGIYLLAAVRGEQWTPIEPKPRERPQIGGTIKQPPSNPPPRPPAEARKKPSEEEAAVAAGGPPGGPQVNPIPVTDEVV [CYBA] , melting temperature observed: 54
